Answer each item with its documented pEC50.
Tested on: SARS-CoV-2 (nCoV/Washington/1/2020)
Assay: microbe, parasite or virus in culture
Type: cell-based
Details: Severe acute respiratory syndrome coronavirus 2, A549-ACE2; read-out: EC50 against SARS-CoV-2 infection
Note on units: pEC50 is unitless, being -log10 of a concentration expressed in mol/L.

pEC50 measured on CN1CCCC(n2nc(Cc3ccc(Cl)cc3)c3ccccc3c2=O)CC1 (stereo not shown) = 5.62

Lab book: pEC50 of CC(CN(C)C)CN1c2ccccc2CCc2ccccc21 (stereo not shown) noted as 5.82

Value of pEC50 reported for the compound CS(=O)(=O)CCNCc1ccc(-c2ccc3ncnc(Nc4ccc(OCc5cccc(F)c5)c(Cl)c4)c3c2)o1 is 5.80

Looking up CCC(CC)COC(=O)[C@H](C)N[P@](=O)(OC[C@H]1O[C@@](C#N)(c2ccc3c(N)ncnn23)[C@H](O)[C@@H]1O)Oc1ccccc1 , I found its pEC50 recorded as 6.14

compound Cc1ccc(NC(=O)c2ccc(CN3CC[C@H](N(C)C)C3)c(C(F)(F)F)c2)cc1Nc1nccc(-c2cncnc2)n1 , pEC50 observed: 5.66

Note to self: pEC50 recorded for OCCN1CCN(CCC=C2c3ccccc3Sc3ccc(C(F)(F)F)cc32)CC1 was 6.12

COc1ccc2cc1Oc1ccc(cc1)C[C@H]1c3c(cc4c(c3Oc3cc5c(cc3OC)CCN(C)[C@@H]5C2)OCO4)CCN1C has a reported pEC50 of 7.00
